Ref: PubChem BioAssay (NCI)

- System: LOX IMVI melanoma
- assay_explanation: NCI-60 one-dose screen, 48 h (100 = growth as untreated, 0 = no growth, -100 = all killed)
- cond: 10 µM
Compounds without any hit were thinned out: in the full panel of roughly 83,000, 20% have a hit.
Documented growth across a set of compounds
Numbers only; they are read as %.

- compound: "CC(=O)NCNC(C)=O"
  measure_unit: "%"
  growth: 113
- compound: "Clc1ccc(C(SCc2ccccc2)SCc2ccccc2)cc1"
  measure_unit: "%"
  growth: 94.3
- compound: "COC(=O)c1cccc([N+](=O)[O-])c1"
  measure_unit: "%"
  growth: 100
- compound: "Cc1ccc[n+](CCC(N)=O)c1"
  measure_unit: "%"
  growth: 82
- compound: "Ic1cccs1"
  measure_unit: "%"
  growth: 96.9

Enquiry: If you can, please state the reported growth value of O=C1NC(=O)/C(=C\c2ccncc2)N1 .
Return: 100

Enquiry: Now the same for COC(=O)c1ccccc1C(=O)c1c(C)cc(C)cc1C
Return: 102

Enquiry: Now the same for Cc1ccc(C)c2c1CCC2=O
Return: 96.2

Enquiry: Now the same for NNc1ncccn1
Return: 96.9

Enquiry: Now the same for Cc1[nH]nc(C(N)=O)c1[N+](=O)[O-]
Return: 97.2

Enquiry: Now the same for CC(C)(C)NCCC(O)c1cc(C(F)(F)F)nc2c(C(F)(F)F)cccc12 (stereo not drawn)
Return: 1.78

Enquiry: Now the same for CN(C)c1ncnc2c1cnn2C
Return: 94.9
